Target: T1, HER3 extracellular domain recombinant protein (human, UniProt P21860 20-643)
T1 construct: extracellular domain; also called HER3 extracellular domain protein; HER3 protein
T1 sequence (P21860 20-643): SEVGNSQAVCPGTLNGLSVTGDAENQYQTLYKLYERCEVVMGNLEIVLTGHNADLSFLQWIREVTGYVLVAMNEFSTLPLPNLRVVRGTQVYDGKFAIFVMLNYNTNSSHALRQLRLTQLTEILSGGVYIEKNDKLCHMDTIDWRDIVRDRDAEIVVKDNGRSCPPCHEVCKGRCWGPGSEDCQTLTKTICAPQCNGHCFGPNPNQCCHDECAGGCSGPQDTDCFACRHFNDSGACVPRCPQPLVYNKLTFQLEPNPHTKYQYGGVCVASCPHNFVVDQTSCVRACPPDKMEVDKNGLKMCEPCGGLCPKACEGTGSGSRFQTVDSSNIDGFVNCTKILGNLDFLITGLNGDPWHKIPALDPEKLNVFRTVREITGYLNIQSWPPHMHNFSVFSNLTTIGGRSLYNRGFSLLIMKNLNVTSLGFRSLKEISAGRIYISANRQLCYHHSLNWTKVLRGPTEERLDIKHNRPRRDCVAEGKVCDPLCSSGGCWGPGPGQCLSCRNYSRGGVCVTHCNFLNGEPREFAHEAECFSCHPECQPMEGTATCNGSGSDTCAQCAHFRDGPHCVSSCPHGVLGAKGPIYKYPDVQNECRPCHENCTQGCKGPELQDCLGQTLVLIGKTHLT
Assay: SPR, ProteOn XPR36; antibody captured by goat anti-human antibody, HER3 extracellular domain 1.25-20 nM as analyte, Langmuir model
Experimental: And the channels were turned to horizontal position, and Channels 1-5 were injected with 20 nM, 10 nM, 5 nM, 2.5 nM, 1.25 nM of samples of HER3 extracellular domain protein respectively, and Channel 6 was injected with buffer. 5 kinetic response curves were obtained, respectively representing the results of the reaction between different concentrations of antigen and the captured antibody. […]
assayReadout: kon
State the value, then name its unit.

Completed entries (count: 4):
binder	kon
1044 human-mouse chimeric antibody (antibody, V domains shown) VH: EVQLQQSGTELMKPGASVKISCKATGGTFSNYWIDWVKQRPGHGLEWIGEILPGSGGTDYNEKFKGKATFTADTSSNTAYMQLSSLTSEDSAVYYCARDDYDVFAYWGQGTLVTVSA VL: DIVMTQAAFSNPVTLGTSASISCRSSKSLLHSNGITYLYWYLQKPGQSPQLLIYQMSNLASGVPDRFSSSGSGTDFTLRISRVEAEDVGVYYCAQNLELPWTFGGGTKLEIKR	1.05e+06 M⁻¹ s⁻¹
humanized antibody hu1044-5 (VL63/69, VH38 back mutation) (antibody, human IgG1, V domains shown) VH: QVQLVQSGAEVKKPGSSVKVSCKASGGTFSNYWIDWVKQAPGQGLEWMGEILPGSGGTDYNEKFKGRVTITADTSTSTAYMELSSLRSEDTAVYYCARDDYDVFAYWGQGTLVTVSS VL: DIVMTQSPGTLSLSPGERATLSCRSSKSLLHSNGITYLYWYQQKPGQAPRLLIYQMSNLASGVPDRFSSSGSGTDFTLTISRLEPEDFAVYYCAQNLELPWTFGQGTKVEIKR	844000 M⁻¹ s⁻¹
humanized antibody hu1044-6 (VL63/69, VH68 back mutation) (antibody, human IgG1, V domains shown) VH: QVQLVQSGAEVKKPGSSVKVSCKASGGTFSNYWIDWVRQAPGQGLEWMGEILPGSGGTDYNEKFKGRATITADTSTSTAYMELSSLRSEDTAVYYCARDDYDVFAYWGQGTLVTVSS VL: DIVMTQSPGTLSLSPGERATLSCRSSKSLLHSNGITYLYWYQQKPGQAPRLLIYQMSNLASGVPDRFSSSGSGTDFTLTISRLEPEDFAVYYCAQNLELPWTFGQGTKVEIKR	904000 M⁻¹ s⁻¹
humanized antibody hu1044-3 (VL69, VH48 back mutation) (antibody, human IgG1, V domains shown) VH: QVQLVQSGAEVKKPGSSVKVSCKASGGTFSNYWIDWVRQAPGQGLEWIGEILPGSGGTDYNEKFKGRVTITADTSTSTAYMELSSLRSEDTAVYYCARDDYDVFAYWGQGTLVTVSS VL: DIVMTQSPGTLSLSPGERATLSCRSSKSLLHSNGITYLYWYQQKPGQAPRLLIYQMSNLASGIPDRFSSSGSGTDFTLTISRLEPEDFAVYYCAQNLELPWTFGQGTKVEIKR	882000 M⁻¹ s⁻¹

Then there is this binder:
Param item = humanized antibody hu1044-1 (VL69 back mutation) (antibody, human IgG1, V domains shown, h1044-0 with Gly to Ser at VL69) VH: QVQLVQSGAEVKKPGSSVKVSCKASGGTFSNYWIDWVRQAPGQGLEWMGEILPGSGGTDYNEKFKGRVTITADTSTSTAYMELSSLRSEDTAVYYCARDDYDVFAYWGQGTLVTVSS VL: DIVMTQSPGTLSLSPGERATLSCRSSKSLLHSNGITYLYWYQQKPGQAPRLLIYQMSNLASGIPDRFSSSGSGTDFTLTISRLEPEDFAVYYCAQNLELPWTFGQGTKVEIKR ; retrieve measured kon.
843000 M⁻¹ s⁻¹
